target_or_system: adenosine A3 receptor (A3AR) (Rattus norvegicus, UniProt P28647)
Construct: native receptor in isolated rat DRG neurons
Sequence (P28647 1-320): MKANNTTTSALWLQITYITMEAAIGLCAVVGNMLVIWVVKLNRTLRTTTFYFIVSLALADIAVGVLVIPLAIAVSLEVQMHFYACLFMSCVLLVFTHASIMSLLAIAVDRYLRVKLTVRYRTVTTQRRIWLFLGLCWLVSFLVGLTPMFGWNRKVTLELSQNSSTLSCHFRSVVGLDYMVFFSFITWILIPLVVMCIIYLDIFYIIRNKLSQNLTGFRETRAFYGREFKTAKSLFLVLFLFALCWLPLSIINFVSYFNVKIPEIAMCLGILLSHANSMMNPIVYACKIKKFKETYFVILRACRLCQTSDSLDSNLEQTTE
assay_details: whole-cell patch clamp of Ca2+ currents in rat DRG neurons; washout, MRS1523 block and occlusion of Cl-IB-MECA
measure_name: pEC50
Give only the number. pEC50 is defined as minus log10 of concentration in molar units.

Prompt: For the molecule CNC(=O)[C@H]1O[C@@H](n2cnc3c(NCc4cccc(N=C=S)c4)ncnc32)[C@H](O)[C@@H]1O , what pEC50 is on record?
Completion: 7.93
